Tested on: MOLT-4 (human acute lymphoblastic leukemia cells)
protocol summary: MTT cancer cell growth inhibition
Type: cell-based
setup conditions: Homo sapiens, MOLT-4, 72 h, MOLT-4 cells, MTT, 72 hours incubation; read-out: GI50 Mol
metric name: GI50 (µM)

[
  {
    "record smiles": "C/C=C1\\NC(=O)c2cc(SC)cc(n2)CNC(=O)C[C@@H](/C=C/CCSC(C)=O)OC(=O)[C@H](Cc2ccc(O)cc2)NC1=O",
    "numeric result": 0.05
  },
  {
    "record smiles": "C/C=C1\\NC(=O)c2cc(SC)cc(n2)CNC(=O)C[C@@H](/C=C/CCSC(=O)CC)OC(=O)[C@H](C(C)C)NC1=O",
    "numeric result": 0.04
  },
  {
    "record smiles": "C/C=C1\\NC(=O)c2cc(SC)cc(n2)CNC(=O)C[C@@H](/C=C/CCSC(C)=O)OC(=O)[C@H](CCCCN)NC1=O",
    "numeric result": 0.04
  }
]

These measurements were taken from patent US10065990B2.
